format: in vivo, human; conditions: female, human, plasma, 1250 mg
Structures can show the parent of a compound that is named as a salt.

- MOLECULE: "Cc1c(O)cccc1C(=O)N[C@@H](CSc1ccccc1)[C@H](O)CN1C[C@H]2CCCC[C@H]2C[C@H]1C(=O)NC(C)(C)C [NFV, Nelfinavir mesylate]"
  UNIT_OF_MEASUREMENT: "ng/mL"
  Cmax: 5000
